B1: glmS ribozyme (parent)
chain: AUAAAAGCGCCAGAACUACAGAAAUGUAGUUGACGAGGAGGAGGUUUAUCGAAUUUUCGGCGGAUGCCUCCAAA

# Variants of: B1
# ASSAY: self-cleavage kobs at 10000 uM GlcN6P; higher = faster cleavage; RNA array
# MEASUREMENT PARAMETERS: with glucosamine-6-phosphate
Variants at the floor of the assay were thinned out.
Listed here: items and their measured self-cleavage kobs at 10000 uM GlcN6P.
QUANTITY KIND: self-cleavage kobs at 10000 uM GlcN6P (s⁻¹)

>>> print(df.to_string())
                     changes                          quantity_kind  relation_sign  recorded_result
 0            U30C G32A C70G  self-cleavage kobs at 10000 uM GlcN6P              =          7.6e-05
 1            A12C G41A U46G  self-cleavage kobs at 10000 uM GlcN6P              =         0.000334
 2                 G13U U54A  self-cleavage kobs at 10000 uM GlcN6P              =          0.00144
 3  A14G A33U G44U U47C G63U  self-cleavage kobs at 10000 uM GlcN6P              <            1e-05
 4       A12U A36U C50A U69G  self-cleavage kobs at 10000 uM GlcN6P              =         6.54e-05
 5                 G37A U46A  self-cleavage kobs at 10000 uM GlcN6P              =         0.000105
 6                 A39U C71U  self-cleavage kobs at 10000 uM GlcN6P              =           0.0183
 7                 C16U U30A  self-cleavage kobs at 10000 uM GlcN6P              =          0.00242
 8        G7C U55G U56C U69A  self-cleavage kobs at 10000 uM GlcN6P              <            1e-05
 9            G29U A48C G63U  self-cleavage kobs at 10000 uM GlcN6P              <            1e-05
10                 U56A C58G  self-cleavage kobs at 10000 uM GlcN6P              =         0.000151
11            A36U G43U G63C  self-cleavage kobs at 10000 uM GlcN6P              <            1e-05
12                 A12C U46C  self-cleavage kobs at 10000 uM GlcN6P              =           0.0026
13                  G7A U45A  self-cleavage kobs at 10000 uM GlcN6P              =         2.85e-05
14            C11G A39G G63U  self-cleavage kobs at 10000 uM GlcN6P              <            1e-05
15                 A33U G35U  self-cleavage kobs at 10000 uM GlcN6P              <            1e-05
16        C8G U45G U55C C71A  self-cleavage kobs at 10000 uM GlcN6P              <            1e-05
17                 U45C C61A  self-cleavage kobs at 10000 uM GlcN6P              <            1e-05
18  A12C C34U G44C U56A U57A  self-cleavage kobs at 10000 uM GlcN6P              <            1e-05
19              A6C G9U U47G  self-cleavage kobs at 10000 uM GlcN6P              <            1e-05
20            G41A G66A C68U  self-cleavage kobs at 10000 uM GlcN6P              =         3.05e-05
21                 G13U A52G  self-cleavage kobs at 10000 uM GlcN6P              =         6.34e-05
